- assay remarks: Cytotoxicity against cisplatin-resistant human C13 cells after 72 hrs by crystal violet dye assay
- Type: functional, cell-based
- stated conditions: C13, 72 h
observable: pIC50
Reminder that pIC50 is minus the log10 of a molar concentration.

For orientation, consider the following solved cases.
COc1cc(/C=C/C(=O)CC(=O)/C=C/c2ccc(O)c(OC)c2)ccc1O 4.77
O=C(/C=C/c1ccc(O[C@@H]2O[C@H](CO)[C@@H](O)[C@H](O)[C@H]2O)cc1)CC(=O)/C=C/c1ccc(O[C@@H]2O[C@H](CO)[C@@H](O)[C@H](O)[C@H]2O)cc1 4.08

Suppose we examine the compound COc1cc(/C=C/C(=O)CC(=O)/C=C/c2ccc(O[C@@H]3O[C@H](CO)[C@@H](O)[C@H](O)[C@H]3O)c(OC)c2)ccc1O[C@@H]1O[C@H](CO)[C@@H](O)[C@H](O)[C@H]1O ; what pIC50 value has been reported?
3.08
